// provenance: ChEMBL document CHEMBL1921778

Test method notes: Drug uptake in mouse brain at 30 mg/kg, sc after 2 hrs
Type: ADME, organism-based
Design: dose 30 mg/kg, route subcutaneous
Reported conditions: read-out: Drug uptake
Measured metric: concentration at 2 h (ng/g)

> print(dat)
                                   molecule  experimental.result
1  CN1CC(C)(c2cccc(NC(=O)c3ccc(Cl)cn3)c2)N=C(N)C1=O (racemic)                  157
2  CN1CC(N)=NC(C)(c2cccc(NC(=O)c3ccc(Cl)cn3)c2)C1=O (racemic)                  123

----------
Test method notes: Drug uptake in mouse brain at 30 mg/kg, sc after 1 hr
Assay type: ADME, organism-based
Design: dose 30 mg/kg, route subcutaneous
Reported conditions: read-out: Drug uptake
Measured metric: concentration at 1 h (ng/g)

I: CN1CC(N)=NC(C)(c2cccc(NC(=O)c3ccc(Cl)cn3)c2)C1=O (racemic)
II: CN1CC(C)(c2cccc(NC(=O)c3ccc(Cl)cn3)c2)N=C(N)C1=O (racemic)
Sort I and II by concentration at 1 h descending and give the first. Bench note: the answer is the label of the chosen record.
II
